Provenance of the data: the supplement of paper PMC7877785

- assay.name: self-splicing fitness, log relative to wild type (ln ratio); higher = more splicing; Tetrahymena group I intron in knt gene, E. coli kanamycin selection, DiMSum; sequences stand for … in CUCUCU…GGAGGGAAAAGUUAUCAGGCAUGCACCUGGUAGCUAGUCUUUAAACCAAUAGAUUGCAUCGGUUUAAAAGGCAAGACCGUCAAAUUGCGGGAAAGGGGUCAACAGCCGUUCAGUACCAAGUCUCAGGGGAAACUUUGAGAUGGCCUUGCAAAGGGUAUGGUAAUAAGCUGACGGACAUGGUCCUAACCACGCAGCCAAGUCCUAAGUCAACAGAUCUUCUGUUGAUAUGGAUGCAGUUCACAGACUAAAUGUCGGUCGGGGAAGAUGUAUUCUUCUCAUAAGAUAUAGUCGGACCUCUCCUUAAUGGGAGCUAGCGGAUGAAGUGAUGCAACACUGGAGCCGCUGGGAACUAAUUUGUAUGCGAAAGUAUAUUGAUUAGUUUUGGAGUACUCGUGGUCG;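 also: selection with 25 µg/mL kanamycin versus none on LB agar overnight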
- experimental.parameters: 37 °C
Grouping by measured self-splicing fitness (ln) is done with the following cut points: group A = under -2, group B = from -2 up to -1, group C = -1 and over

[[record]]
sequence_data = "CAGGAGCAAUAUUACGUCAG"
assigned_label = "group B"

[[record]]
sequence_data = "AUAUAGCAAUAUUACGUAAA"
assigned_label = "group B"

[[record]]
sequence_data = "CUGUAGCAAUAUUACGCGAC"
assigned_label = "group A"

[[record]]
sequence_data = "UGUGAGCAAUAUUACGGCCC"
assigned_label = "group B"

[[record]]
sequence_data = "UGGGAGCAAUAUUACGUUUG"
assigned_label = "group A"

[[record]]
sequence_data = "UGCCAGCAAUAUUACGUGCC"
assigned_label = "group C"

[[record]]
sequence_data = "GUUAAGCAAUAUUACGAUGU"
assigned_label = "group C"

[[record]]
sequence_data = "GACUAGCAAUAUUACGGCCC"
assigned_label = "group C"

[[record]]
sequence_data = "CUGCAGCAAUAUUACGCACA"
assigned_label = "group B"

[[record]]
sequence_data = "CUCAAGCAAUAUUACGCGAG"
assigned_label = "group A"

[[record]]
sequence_data = "ACAGAGCAAUAUUACGGUGC"
assigned_label = "group A"

[[record]]
sequence_data = "UAAAAGCAAUAUUACGCCAA"
assigned_label = "group B"

[[record]]
sequence_data = "CGACAGCAAUAUUACGCGUC"
assigned_label = "group A"

[[record]]
sequence_data = "GUUAAGCAAUAUUACGGAAG"
assigned_label = "group B"

[[record]]
sequence_data = "CGCAAGCAAUAUUACGGUCG"
assigned_label = "group C"

[[record]]
sequence_data = "ACUUAGCAAUAUUACGUCCU"
assigned_label = "group C"

[[record]]
sequence_data = "CGACAGCAAUAUUACGCGAA"
assigned_label = "group B"

[[record]]
sequence_data = "AAAUAGCAAUAUUACGUGAU"
assigned_label = "group B"

[[record]]
sequence_data = "UCUAAGCAAUAUUACGUGAA"
assigned_label = "group C"

[[record]]
sequence_data = "CUGAAGCAAUAUUACGUCCU"
assigned_label = "group A"

[[record]]
sequence_data = "AGAGAGCAAUAUUACGGUAC"
assigned_label = "group A"

[[record]]
sequence_data = "GCAUAGCAAUAUUACGACAA"
assigned_label = "group C"

[[record]]
sequence_data = "UUGCAGCAAUAUUACGUCUG"
assigned_label = "group A"

[[record]]
sequence_data = "CAUGAGCAAUAUUACGGAGA"
assigned_label = "group A"

[[record]]
sequence_data = "UCAUAGCAAUAUUACGGCCG"
assigned_label = "group C"

[[record]]
sequence_data = "CAACAGCAAUAUUACGCCGA"
assigned_label = "group B"

[[record]]
sequence_data = "UGGAAGCAAUAUUACGGGCA"
assigned_label = "group C"

[[record]]
sequence_data = "UUACAGCAAUAUUACGCGAA"
assigned_label = "group C"

[[record]]
sequence_data = "GAUGAGCAAUAUUACGAAAC"
assigned_label = "group A"

[[record]]
sequence_data = "CAUCAGCAAUAUUACGUCCA"
assigned_label = "group A"

[[record]]
sequence_data = "AUCAAGCAAUAUUACGAGCA"
assigned_label = "group C"

[[record]]
sequence_data = "CAGAAGCAAUAUUACGGUGU"
assigned_label = "group A"

[[record]]
sequence_data = "UAGGAGCAAUAUUACGACGU"
assigned_label = "group B"

[[record]]
sequence_data = "AGGUAGCAAUAUUACGGCCC"
assigned_label = "group B"

[[record]]
sequence_data = "GGGAAGCAAUAUUACGGGCC"
assigned_label = "group C"

[[record]]
sequence_data = "ACAAAGCAAUAUUACGUCAG"
assigned_label = "group B"

[[record]]
sequence_data = "AGCUAGCAAUAUUACGAUUU"
assigned_label = "group C"

[[record]]
sequence_data = "AGCUAGCAAUAUUACGACUC"
assigned_label = "group B"

[[record]]
sequence_data = "CCCAAGCAAUAUUACGGAAC"
assigned_label = "group A"

[[record]]
sequence_data = "ACAGAGCAAUAUUACGCCUA"
assigned_label = "group B"

[[record]]
sequence_data = "GUUCAGCAAUAUUACGCCCU"
assigned_label = "group C"

[[record]]
sequence_data = "UCGCAGCAAUAUUACGUUUA"
assigned_label = "group B"

[[record]]
sequence_data = "AUUUAGCAAUAUUACGUUAG"
assigned_label = "group A"

[[record]]
sequence_data = "AGACAGCAAUAUUACGUGCU"
assigned_label = "group B"

[[record]]
sequence_data = "ACAGAGCAAUAUUACGCUAG"
assigned_label = "group A"

[[record]]
sequence_data = "GCCUAGCAAUAUUACGAUAU"
assigned_label = "group C"

[[record]]
sequence_data = "UUGGAGCAAUAUUACGGUUA"
assigned_label = "group B"

[[record]]
sequence_data = "UCUUAGCAAUAUUACGAGUU"
assigned_label = "group C"

[[record]]
sequence_data = "GUCAAGCAAUAUUACGUAUA"
assigned_label = "group C"

[[record]]
sequence_data = "AUCAAGCAAUAUUACGCGCA"
assigned_label = "group C"

[[record]]
sequence_data = "GUACAGCAAUAUUACGGAUG"
assigned_label = "group B"

[[record]]
sequence_data = "CAACAGCAAUAUUACGCACA"
assigned_label = "group C"

[[record]]
sequence_data = "UACCAGCAAUAUUACGCCCA"
assigned_label = "group C"

[[record]]
sequence_data = "UCGCAGCAAUAUUACGCUUG"
assigned_label = "group B"

[[record]]
sequence_data = "AUCAAGCAAUAUUACGAAGU"
assigned_label = "group B"

[[record]]
sequence_data = "CAGAAGCAAUAUUACGCAUC"
assigned_label = "group A"

[[record]]
sequence_data = "UAAAAGCAAUAUUACGGUGC"
assigned_label = "group A"

[[record]]
sequence_data = "GCGCAGCAAUAUUACGCGGC"
assigned_label = "group A"

[[record]]
sequence_data = "UCGAAGCAAUAUUACGGCAA"
assigned_label = "group B"

[[record]]
sequence_data = "GUUAAGCAAUAUUACGUGCC"
assigned_label = "group C"

[[record]]
sequence_data = "ACUGAGCAAUAUUACGGGCA"
assigned_label = "group B"

[[record]]
sequence_data = "GCUAAGCAAUAUUACGAUUG"
assigned_label = "group B"

[[record]]
sequence_data = "CCUUAGCAAUAUUACGUAUU"
assigned_label = "group A"

